- Target: dopamine β-hydroxylase (DBH) (Bos taurus)
- Sequence (P15101 whole entry): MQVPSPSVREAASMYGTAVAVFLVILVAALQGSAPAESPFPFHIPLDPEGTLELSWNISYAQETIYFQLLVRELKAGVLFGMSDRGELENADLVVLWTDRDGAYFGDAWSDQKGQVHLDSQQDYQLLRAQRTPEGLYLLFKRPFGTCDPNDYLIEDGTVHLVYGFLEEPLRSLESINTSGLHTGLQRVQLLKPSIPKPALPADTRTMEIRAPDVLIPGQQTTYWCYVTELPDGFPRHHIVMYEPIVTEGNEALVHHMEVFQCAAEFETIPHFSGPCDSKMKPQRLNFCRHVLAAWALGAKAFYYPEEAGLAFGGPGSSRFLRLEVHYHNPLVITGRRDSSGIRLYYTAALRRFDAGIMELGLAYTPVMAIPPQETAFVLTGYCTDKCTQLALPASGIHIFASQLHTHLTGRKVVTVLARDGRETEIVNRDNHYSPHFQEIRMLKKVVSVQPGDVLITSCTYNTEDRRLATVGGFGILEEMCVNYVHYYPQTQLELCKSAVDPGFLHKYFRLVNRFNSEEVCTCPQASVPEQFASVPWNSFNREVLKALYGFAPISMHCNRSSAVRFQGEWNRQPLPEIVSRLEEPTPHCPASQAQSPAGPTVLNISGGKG
- Assay Text: DBH inhibition, oxygen uptake followed with a polarographic electrode and oxygen monitor
- Test Parameters: ascorbate electron donor, tyramine substrate; pH 4.5 to 5.5, preferably pH 5.0; 20° C. to 40° C., preferably 37° C.; read-out: DBH inhibitory activity, IC50 (concentration at which the reaction is inhibited by 50%)
- From the text: The DBH inhibitory properties of the compounds of this invention can readily be determined by standard and well-known procedures. […]
Readout Kind: IC50 (µM)

{"columns": ["Smiles Record", "Test Result"],
 "data": [
  ["c1csc(Cn2ccnc2-c2ncc[nH]2)c1", 65.5],
  ["c1c[nH]c(-c2nc(Cc3ccsc3)c[nH]2)n1", 8.8],
  ["c1c[nH]c(-c2nccn2Cc2ccsc2)n1", 29]
]}

Where do these numbers come from? They come from patent US4839375A.
